Biological target: Estrogen receptor (Homo sapiens) (UniProt P03372)
Sequence (P03372 whole entry, looked up): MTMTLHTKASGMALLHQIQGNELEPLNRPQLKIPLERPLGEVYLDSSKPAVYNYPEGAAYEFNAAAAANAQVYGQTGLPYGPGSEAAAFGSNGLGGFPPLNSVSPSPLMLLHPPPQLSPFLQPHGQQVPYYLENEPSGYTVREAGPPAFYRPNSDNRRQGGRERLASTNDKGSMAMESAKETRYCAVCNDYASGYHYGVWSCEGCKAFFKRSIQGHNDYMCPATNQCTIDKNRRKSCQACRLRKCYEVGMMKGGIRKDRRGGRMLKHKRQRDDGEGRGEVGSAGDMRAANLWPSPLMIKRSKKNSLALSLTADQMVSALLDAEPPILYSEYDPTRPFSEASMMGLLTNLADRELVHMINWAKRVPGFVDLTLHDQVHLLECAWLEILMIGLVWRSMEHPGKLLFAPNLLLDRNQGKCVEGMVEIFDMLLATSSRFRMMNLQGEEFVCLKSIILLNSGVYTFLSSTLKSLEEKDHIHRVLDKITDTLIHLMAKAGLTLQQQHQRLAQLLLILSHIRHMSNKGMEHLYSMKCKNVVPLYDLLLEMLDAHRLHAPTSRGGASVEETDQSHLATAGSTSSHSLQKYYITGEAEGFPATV
Assay: qHTS assay to identify small molecule antagonists of the estrogen receptor alpha (ER-alpha) signaling pathway using the BG1 cell line in the presence of 0.1 nM 17-beta-estradiol (AID 1259244); further: nearly all actives have a fitted effect of over 50% in size
Conditions: VM7Luc4E2 (BG1) ERE-luciferase, antagonist mode, 0.1 nM E2, 22 h; series mostly up to 92.4 µM
From the text: National Center for Advancing Translational Sciences [NCATS] NIH Chemical Genomics Center [NCGC] U.S. Environmental Protection Agency [EPA] National Institutes of Environmental Health Sciences [NIEHS] National Toxicology Program [NTP] U.S. Food and Drug Administration [FDA] Estrogen receptor (ER), a member of the nuclear hormone receptor plays an important role in development, metabolic homeostasis and reproduction. […]
Results filed as inconclusive are left out. The source made the active and inactive calls. The call rests on the fitted dose curve; in most records, active means well fitted inhibition curve with a large enough effect in the repeat runs; inconclusive means weak or mixed curves; inactive means no such curve, though single readings can be large or run the other way.
Return exactly one item of active, inactive

Some entries whose results are on file:
C#CCO : inactive
c1ccc2nc(N3CCNCC3)ccc2c1 : inactive
[O]=[Cr][O][Cr]=[O] : inactive
CC(C)C(Br)C(=O)NC(N)=O (stereo not given) : inactive
CC1CN1 (stereo not given) : inactive

Exercise: Test call, this compound: O=NN(CCO)CCO
Solution: inactive

Exercise: Note, next up: Oc1ccc(Cl)c(Cl)c1
Solution: inactive

Exercise: Note, next up: O=[N+]([O-])c1cc(C(F)(F)F)c(Cl)c([N+](=O)[O-])c1Nc1ncc(C(F)(F)F)cc1Cl
Solution: active

Exercise: Note, next up: CCN1CCC2(CC1)COc1cc3c(cc12)N(C(=O)c1ccc(-c2ccc(-c4nnc(C)o4)cc2C)cc1)CC3
Solution: active

Exercise: Note, next up: c1ccc(Nc2ccc(Nc3ccccc3)cc2)cc1
Solution: inactive

Exercise: Note, next up: O=C(CCCCl)c1ccc(F)cc1
Solution: inactive

====

Experiment: A CellTox Green Cytotoxicity Assay to monitor cytotoxicity in HepG2 cells - 40 hour (AID 1224879); further: nearly all actives have a fitted effect of over 40% in size
Settings: CellTox Green fluorescence; series mostly up to 76.8 µM
Inconclusive results are not listed. Calls of active or inactive are those of the source. Calls come from the whole dose curve; as a rule, active = well fitted activation curve with a large enough effect in the repeat runs; inconclusive = weak or mixed curves; inactive = flat fitted curve, though single readings scatter.
Return exactly one item of true (1) = active, false (0) = inactive

Some entries whose results are on file:
CC(Cc1ccc(O)cc1)NCC(O)c1cc(O)cc(O)c1 (stereo not given) : false (0)
Oc1cccc(Cl)c1Cl : false (0)

Exercise: Test call, this compound: CC[C@H](C)[C@H]1O[C@]2(C=C[C@@H]1C)C[C@@H]1C[C@@H](C/C=C(\C)[C@@H](O[C@H]3C[C@H](OC)[C@@H](O[C@H]4C[C@H](OC)[C@@H](NC)[C@H](C)O4)[C@H](C)O3)[C@@H](C)/C=C/C=C3\CO[C@@H]4[C@H](O)C(C)=C[C@@H](C(=O)O1)[C@]34O)O2
Solution: true (1)

Exercise: Note, next up: CC(C)N(C(=O)CCl)c1ccccc1
Solution: true (1)

Exercise: Note, next up: CCN(CC)Cc1nccn1-c1ccc([N+](=O)[O-])cc1C(=O)c1ccccc1Cl
Solution: false (0)

====

Assay: Caspase-3/7 induction in HepG2 cells by small molecules, qHTS assay (AID 1346978); further: nearly all actives have a fitted effect of over 15% in size
Settings: HepG2 caspase-3/7 activation, Caspase-Glo luminescence, 17 h; series mostly up to 92.4 µM
Results filed as inconclusive are left out. The source made the active and inactive calls. Calls follow the shape of the dose curve; as a rule, active = well fitted activation curve with a large enough effect in the repeat runs; inconclusive = weak or mixed curves; inactive = flat fitted curve, though single readings scatter.
Return exactly one item of active, inactive

Exercise: Test call, this compound: O=c1c2ccccc2c(=O)c2c1cc(Cl)c1[nH]c3c([nH]c12)c(Cl)cc1c(=O)c2ccccc2c(=O)c13
Solution: inactive

Exercise: Note, next up: C#CCO
Solution: inactive

Exercise: Note, next up: CCOP(=S)(OCC)SC(CCl)N1C(=O)c2ccccc2C1=O (stereo not given)
Solution: inactive

Exercise: Note, next up: O.O.O.O.O.O.O.O=S(=O)([O-])[O-].[Co+2]
Solution: inactive

Exercise: Note, next up: O=P(Cl)(Cl)Cl
Solution: inactive

Exercise: Note, next up: CCC1(CC)C(=O)N=C(O)NC1=O
Solution: inactive

Exercise: Note, next up: CCC(OC(C)=O)C(CC(C)NC)(c1ccccc1)c1ccccc1 (stereo not given)
Solution: active

Exercise: Note, next up: CC(C)C(Nc1ccc(C(F)(F)F)cc1Cl)C(=O)OC(C#N)c1cccc(Oc2ccccc2)c1 (stereo not given)
Solution: inactive

Exercise: Note, next up: CCOC(=O)Cc1ccccc1
Solution: inactive

Exercise: Note, next up: O=C1C[C@@H]2OCC=C3CN4CC[C@]56c7ccccc7N1[C@H]5[C@H]2[C@H]3C[C@H]46
Solution: inactive

Exercise: Note, next up: CCCCN(CCCC)C(=S)[S-].CCCCN(CCCC)C(=S)[S-].[Ni+2]
Solution: inactive

Exercise: Note, next up: O=[N+]([O-])c1cccc2cccc([N+](=O)[O-])c12
Solution: inactive

Exercise: Note, next up: ClSC(Cl)(Cl)Cl
Solution: inactive

Exercise: Note, next up: CCn1cc[n+](C)c1 (tested in a mixture with another compound)
Solution: inactive

====

Assay: qHTS assay to identify small molecule agonists of the retinoic acid receptor (RAR) signaling pathway (AID 1159553)
Settings: C3RL4 RARE luciferase reporter, agonist, 6 h; series mostly up to 73.3 µM
Results filed as inconclusive are left out. Active and inactive are the calls of the source. The call rests on the fitted dose curve; in most records, active means well fitted activation curve with a large enough effect in the repeat runs; inconclusive means weak or mixed curves, or effect the other way; inactive means no such curve, though single readings can be large or run the other way.
Return exactly one item of active, inactive

c1ccc(Nc2ccc(Nc3ccccc3)cc2)cc1 : active
COc1ccc(Cc2nccc3cc(OC)c(OC)cc23)cc1OC : inactive
ClC(Cl)C(Cl)(Cl)Cl : inactive
O=[N+]([O-])c1ccccc1-c1ccccc1 : inactive
Nc1nc(N)nc(Cl)n1 : inactive

Exercise: Test call, this compound: C=CCOC(=O)c1ccccc1N
Solution: inactive

Exercise: Note, next up: Cc1cccc(Cc2cnc[nH]2)c1C
Solution: inactive

====

Test: qHTS RealTime-Glo MT Cell Viability Assay in HEK293 cells - 32 hour (AID 1224868); further: nearly all actives have a fitted effect of over 50% in size
Details: RealTime-Glo luminescence; series mostly up to 76.8 µM
Results filed as inconclusive are left out. Activity calls are given as the source filed them. Calls follow the shape of the dose curve; as a rule, active = well fitted cell-killing curve with a large enough effect in the repeat runs; inconclusive = weak or mixed curves, or effect the other way; inactive = flat fitted curve, though single readings scatter.
Return exactly one item of active, inactive

O=[N+]([O-])C(Br)Br : active
CNC(=O)/C=C(\C)OP(=O)(OC)OC : inactive
CN=C=O : inactive
CCC(C)Nc1c([N+](=O)[O-])cc(C(C)(C)C)cc1[N+](=O)[O-] (stereo unspecified) : inactive

Exercise: Test call, this compound: CCCCN(CCCC)C(=S)[S-].CCCCN(CCCC)C(=S)[S-].[Ni+2]
Solution: inactive

Exercise: Note, next up: O=[N+]([O-])c1ccc(Cl)c(Cl)c1Cl
Solution: inactive

Exercise: Note, next up: CCC(OC(C)=O)C(CC(C)NC)(c1ccccc1)c1ccccc1 (stereo unspecified)
Solution: active

====

Test: qHTS assay to identify small molecule agonists of the peroxisome proliferator-activated receptor delta (PPARd) signaling pathway - cell viability counter screen (AID 743211); further: nearly all actives have a fitted effect of over 55% in size
Details: PPARd-bla HEK293H viability, CellTiter-Glo luminescence, 17 h; series mostly up to 62.6 µM
Records with an inconclusive call do not appear. Active and inactive are the calls of the source. Calls come from the whole dose curve; as a rule, active = well fitted cell-killing curve with a large enough effect in the repeat runs; inconclusive = weak or mixed curves; inactive = no such curve, though single readings can be large or run the other way.
Return exactly one item of active, inactive

Some entries whose results are on file:
COP(=S)(OC)Oc1ccc([N+](=O)[O-])c(C)c1 : inactive
O=C1C[C@@H]2OCC=C3CN4CC[C@]56c7ccccc7N1[C@H]5[C@H]2[C@H]3C[C@H]46 : inactive
Oc1cccc(Cl)c1Cl : inactive
CC(C)c1c(CN(C)C(C)Cc2ccccc2)n(C)n(-c2ccccc2)c1=O (configuration not stated) : inactive

Exercise: Test call, this molecule: N#Cc1sc2c(=O)c3ccccc3c(=O)c=2sc1C#N
Solution: active

Exercise: Note, next up: COP(=S)(NC(C)C)Oc1ccc(C)cc1[N+](=O)[O-] (configuration not stated)
Solution: inactive

Exercise: Note, next up: CSC(C)(C)/C=N/O
Solution: inactive

Exercise: Note, next up: COC(=O)c1cc(Oc2ccc(Cl)cc2Cl)ccc1[N+](=O)[O-]
Solution: inactive

Exercise: Note, next up: [Cl-].[Cl-].[Cl-].[Yb+3]
Solution: inactive

Exercise: Note, next up: Cc1ccc([N+](=O)[O-])[c]2c1[O][Hg]2
Solution: active

Exercise: Note, next up: COc1ccc2c(c1OC)C(=O)O[C@@H]2[C@H]1c2cc3c(cc2CCN1C)OCO3
Solution: inactive

Exercise: Note, next up: COC(=O)c1ccccc1S(=O)(=O)NC(=O)Nc1nc(C)nc(OC)n1
Solution: inactive

Exercise: Note, next up: CC1(C)C(C=C(Cl)Cl)C1C(=O)OC(C#N)c1ccc(F)c(Oc2ccccc2)c1 (configuration not stated)
Solution: inactive

Exercise: Note, next up: Nc1cc(Cl)ccc1Cl
Solution: inactive

Exercise: Note, next up: CCC[CH2][Sn]([CH2]CCC)([CH2]CCC)[CH2]CCC
Solution: active
